The origin of these recorded values is PubChem BioAssay AID1963423.

# System: 439559-082-T-J2-PDC complex spheroid growth;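 note: spheroids exposed to agents for 7 days starting day 3 after seeding; percent of DMSO vehicle control viability with 100% = vehicle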
# assayProcedure: Anticancer human tumor 439559-082-T-J2-PDC patient-derived colon adenocarcinoma cell line growth inhibition [Asc]
# testParameters: second compound 1 µM; first compound 0.00949 µM; stronger effect = lower value
valueType: viability, T/C

1) Cc1nc(N2CCC3(CC2)COC(C)C3N)c(CO)nc1Sc1ccnc(N)c1Cl (stereo not drawn) + CNC(C)C(=O)NC1CN(S(=O)(=O)c2cccc(S(=O)(=O)N3CCC4CCC(C(=O)NC(c5ccccc5)c5ccccc5)N4C(=O)C(NC(=O)C(C)NC)C3)c2)CCC2CCC(C(=O)NC(c3ccccc3)c3ccccc3)N2C1=O : 72.9%
2) NC(=O)C(=Cn1cnc(-c2cc(C(F)(F)F)cc(C(F)(F)F)c2)n1)c1cncnc1 + CNC(C)C(=O)NC1CN(S(=O)(=O)c2cccc(S(=O)(=O)N3CCC4CCC(C(=O)NC(c5ccccc5)c5ccccc5)N4C(=O)C(NC(=O)C(C)NC)C3)c2)CCC2CCC(C(=O)NC(c3ccccc3)c3ccccc3)N2C1=O : 86.8%

Turning to the following compound.
If you can, please state the reported viability, T/C value of CCN1C(C(=O)NC23CCC(C(=O)O)(CC2)CC3)C(c2cccc(Cl)c2F)C2(C(=O)Nc3cc(Cl)ccc32)C12CCCCC2 (stereo not drawn) + Cc1c(S(C)(=O)=O)c(-c2cc(F)cc(N3CCN(c4ccc(NS(=O)(=O)c5ccc(NC(CCN6CCC(C(=O)OCCCP(=O)(O)O)CC6)CSc6ccccc6)c(S(=O)(=O)C(F)(F)F)c5)cc4)CC3)c2)c(-c2ccc(Cl)cc2)n1C(C)C .
90.8%
